- Subject Of Test: Fibroblast growth factor 10 (Homo sapiens) (UniProt O15520)
- Sequence (O15520 whole entry, looked up): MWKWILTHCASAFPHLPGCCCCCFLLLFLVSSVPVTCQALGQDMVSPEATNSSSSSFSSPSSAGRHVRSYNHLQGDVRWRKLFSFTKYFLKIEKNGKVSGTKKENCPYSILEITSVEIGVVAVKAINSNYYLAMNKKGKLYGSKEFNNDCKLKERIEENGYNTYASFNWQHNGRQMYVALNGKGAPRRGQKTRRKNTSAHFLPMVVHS
- Method Summary: FGF10 binders on small-molecule microarrays, primary screen, biochemical, small-molecule microarray, 635 nm fluorescence (AID 1102)
- Experimental Conditions: FGF10 binding, fluorescence 635 nm, higher = more signal
Outcome label depends on composite z-score relative to 0.6: at/above gives Satisfied, below gives Not satisfied.

>  <Compound>
CCCC=C(CCC)[C@@H](NS(=O)(=O)c1cccc2cccnc12)c1ccc(-c2ccccc2)cc1

>  <Classification>
Satisfied

$$$$
>  <Compound>
CCCCNC(=O)c1ccc(C#C[Si](C(C)C)(C(C)C)C(C)C)c(OC(C)=O)c1

>  <Classification>
Satisfied

$$$$
>  <Compound>
CCCCC=C[C@@H](NC(=O)c1ccccc1)c1ccccc1

>  <Classification>
Satisfied

$$$$
>  <Compound>
C=C(/C(=C/C[C@@H](OC(C)=O)c1ccc(OCCO)cc1)c1cc(C(=O)OC)ccc1OC)C(C)C

>  <Classification>
Satisfied

$$$$
>  <Compound>
O=C(CS)NCCCCCCNC(=O)[C@@H]1C[C@@H]2C(=O)NCC(=O)N2[C@@H]1c1ccc(O)cc1

>  <Classification>
Not satisfied

$$$$
>  <Compound>
CC(=O)n1cc(C(O)C2C=CC3C(=O)N(c4ccccc4)C(=O)C3N2Nc2ccc(C(C)C)cc2)c2ccccc21 (stereo not drawn)

>  <Classification>
Satisfied

$$$$
>  <Compound>
COc1cc(C(O)C2C=CC3C(=O)N(Cc4ccccc4)C(=O)C3N2n2cnnc2)cc(OC)c1OC (stereo not drawn)

>  <Classification>
Not satisfied

$$$$
>  <Compound>
C=C(C(=O)CC[C@@H](OC(=O)c1ccccc1-c1ccccc1C(=O)O)c1ccccc1OCCO)C(C)C

>  <Classification>
Satisfied

$$$$
>  <Compound>
COC(=O)[C@@]1(Cc2ccc(F)cc2)[C@H]2c3cc(C(=O)N4CCCC4)n(CC4CC4)c3C[C@H]2CN1C(=O)c1ccccc1

>  <Classification>
Satisfied

$$$$
>  <Compound>
C=CCN1C(=O)[C@@]2(O[C@@H](CCO)[C@H]([Si](C)(C)c3ccc(OC)cc3)[C@H]2C)c2cc(N3CCOC3=O)ccc21

>  <Classification>
Not satisfied

$$$$
>  <Compound>
CCOC(=O)C=Cc1ccccc1O

>  <Classification>
Not satisfied

$$$$
>  <Compound>
Cc1ccc(N2C(=O)c3ccccc3[C@](C)(C(=O)NCc3ccccc3)[C@@H]2c2ccc(CO)cc2)nc1

>  <Classification>
Not satisfied

$$$$
>  <Compound>
CCOC(=O)C1=CC[C@@H](c2ccccc2)N(S(=O)(=O)c2ccc(C)cc2)[C@H]1c1cccc(OC)c1

>  <Classification>
Not satisfied

$$$$
>  <Compound>
CCOC(=O)C[C@H]1[C@H](OC(=O)c2ccccc2-c2ccccc2)[C@@H](NC(=O)c2ccccc2)c2cc(OCCCO)ccc2N1C(=O)c1ccccc1

>  <Classification>
Satisfied

$$$$
>  <Compound>
CC(C)C[C@@H]1NC(=O)CNC(=O)[C@@]23C(=O)N[C@@H](Cc4ccccc4)C2[C@H](C)[C@@]2(C)O[C@H]2C3/C=C/C/C=C\CNC1=O (stereo partly drawn)

>  <Classification>
Not satisfied

$$$$
>  <Compound>
O=C1C2C=CC(C(O)c3ccc4c(c3)OCO4)N(Nc3ccccc3)C2C(=O)N1c1ccccc1 (stereo not drawn)

>  <Classification>
Satisfied

$$$$
>  <Compound>
CCC(CC)C(O)C1C=CC2C(=O)N(c3ccccc3)C(=O)C2N1Nc1ccc([N+](=O)[O-])cc1 (stereo not drawn)

>  <Classification>
Satisfied

$$$$
